SYSTEM_TESTED: RSV protein G (recombinant G protein) (respiratory syncytial virus (RSV), strain not stated)
EXPERIMENT: SPR (Biacore), Fab on recombinant antigen
OBSERVED_PROPERTY: t1/2 (h)
The reply should be a number in h, with the unit left off.

t1/2 for Fab fragment of antibody clone 816 (Fab) VH: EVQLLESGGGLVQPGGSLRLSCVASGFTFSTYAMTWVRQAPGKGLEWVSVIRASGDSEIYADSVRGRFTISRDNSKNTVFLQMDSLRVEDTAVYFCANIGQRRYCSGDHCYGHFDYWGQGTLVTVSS light: DIVMTQSPLSLPVTPGEPASISCRSSQSLLHSDGRYYVDWYLQKPGQSPHLLIYLASNRASGVPDRFTGSGSGTDFTLKISRVEAEDVGVYYCMQGLHTPWTFGQGTKVDIKRTVAAPSVFIFPPSDEQLKSGTASVVCLLNNFYPREAKVQWKVDNALQSGNSQESVTEQDSKDSTYSLSSTLTLSKADYEKHKVYACEVTHQGLSSPVTKSFNRGEC is 1.08
